Target: T1, RADIL, Q96JH8
T1 sequence (Q96JH8 971-1071, limits assumed, looked up): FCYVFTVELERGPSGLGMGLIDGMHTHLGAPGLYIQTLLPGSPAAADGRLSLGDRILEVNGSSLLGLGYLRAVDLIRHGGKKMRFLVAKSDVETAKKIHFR
Test: holdup assay
Set-up: key: below the threshold = too weak to quantify, mostly under pKd 3.1 to 4
Conditions: plain residues with an end cap or a label only (N-terminal biotin on a linker: ado-ado)
Please respond with reported pKd for every item in the list.
Reply briefly: the number, and no unit.

Record summary for SAKVRTVTSV [RASL11B, Q9BPW5] : reported pKd = 3.94

Entry GSGAVEMESV [AQP6, Q13520] , pKd reported as 3.56
